# assayDetails: chemical genetic growth profiling, strain panel (AID 1159580);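 also: tested at 20 µM; growth read once vehicle control cultures reached saturation at 30 °C; 1 = growth at the plate median or of vehicle wells; lower values mean less growth of the strain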
# experimentalConditions: S. cerevisiae deletion strains, growth OD, locus YER016W, strain bim1, hits give low values
In all, about 5,500 compounds went through this assay and about 2,000 (36%) were called active. Not shown: some 18% with an inconclusive outcome. Some of the results follow.
Measured normalized growth, listed per entry.

# example entries with known answers
compound | normalized growth
COC(=O)[C@@]1(C)CCC[C@]2(C)c3ccc(O)c(C(C)C)c3CCC12 (stereo not given in full) | 0.825 (active)
NC(=O)c1ncn([C@@H]2O[C@H](CO)[C@@H](O)[C@H]2O)n1 | 0.988 (inactive)
CN(C)c1ccc2nc3ccc(=[N+](C)C)cc-3sc2c1 | 1.05 (inactive)

IN: Look up normalized growth for this compound: COc1cccc2c(C)cc(=O)[nH]c12
OUT: 0.953 (inactive)

IN: Given the entry CC(=O)Oc1ccc2c(c1OC(C)=O)OCC1(O)Cc3c(cc(OC(C)=O)c(OC(C)=O)c3OC(C)=O)C21 (stereo not given) , report its measured normalized growth.
OUT: 1.02 (inactive)

IN: // lookup normalized growth for CC(=O)O[C@]1(C(C)=O)CCC2C3C=C(Cl)C4=CC(=O)[C@@H]5C[C@@H]5[C@]4(C)C3CC[C@@]21C (stereo not given in full)
OUT: 1.01 (inactive)

IN: Given the entry CCCCCc1c2c(cc(O)c1C(=O)O)OC(=O)c1c(cc(OC)cc1C(=O)CCCC)O2 , report its measured normalized growth.
OUT: 0.989 (inactive)

IN: Given the compound CC(C)(C)NCC(O)c1cc(O)cc(O)c1 (stereo not given) , what is its reported normalized growth?
OUT: 0.946 (inactive)

IN: Consider the compound shown here: Oc1cc2c(cc1O)C1c3ccc(O)c(O)c3OCC1(O)C2 (stereo not given) What is its recorded normalized growth?
OUT: 1.02 (inactive)

IN: Dear colleague, I am looking for the recorded normalized growth of the following compound: CC(C)c1c(O)ccc2c1CCC1[C@@](C)(CO)CCC[C@]21C (stereo not given in full)
OUT: 1.01 (inactive)
